- System: MS2 coat protein
- protocol: apparent KD of MS2 coat protein, switch OFF state (with FMN for OFF switches, without FMN for ON switches); designed switch direction (-1 OFF switch, 1 ON switch): 1; higher = weaker reporter binding
- test settings: FMN input: 0 or 200 uM; Eterna round: R93 (includes R88 designs)
# apparent KD of MS2 coat protein per entry
Hi! Could you send only the number? It should be in nM, unit omitted.

Known results for sequences:
UUACGUACGUAUGAGGAUAUCCAUAAUAAGACAUGAGGAUCACCCAUGUAAACAAAACAAUAAUGGGAGAAGGCAUACGUACGAA [Mat - Same state - Malcolm Mod - D135] :: 47.3
AAAAUACAUGAGGAUCACCCAUGUGAAAAUAUGGAAGGAUAUCAUGGAAAAAAAAAAACAUGAGAAGGUCCAAAAA [SS! 1 MT 9] :: 123

QUERY: Request the reported apparent KD of MS2 coat protein associated with AAAAAAAAAGUAUAGGAUAUCCGAGUGGUAACAUGAGGAUCACCCAUGUGAAGAAAGGAAGAUGAGGAGAAGGAUACAAAAAAAAA [Mod of Mat of Nando]
RESULT: 65.3

* * *

- System: K4 kissing-loop RNA reporter;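 note: bound reporter read as fluorescence of individual clusters on recovered sequencing chips by microscopy, with normalized cluster intensities fitted with a binding model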
- protocol: apparent KD of K4 kissing-loop reporter; higher = weaker reporter binding
- test settings: Eterna round: R107; input ligand: tryptophan 2.4 mM
Reported apparent KD of K4 kissing-loop reporter by item:
Give just the numeric value; nM need not be written.

In the examples that follow, each entry is paired with its recorded apparent KD of K4 kissing-loop reporter.
AGUGAUAUAUGAGGAUAUGGGUUAAUUAGUGAGUGAUUUUUAGUGUUGUUUGAUUAGUGAUGUUAUUUAGAAGGCGUGAGUGAUG [mvvmjmullin] :: 79.4
GGUGCUGGCCAGUGAUGUUGGCGAAUACUGAAGGAUAUGAUAGGCGUCAGAAGGUCAAGAGUAAUAUCUAGAAUGAAUAGUGAUA [theeternabot_sameState_KL_FMN_A_38] :: 285
AGAGUUAUGCGAGGAUAUGCAGUUAGUACUCAAAGAGUACUAACAGCAGAGUGAUGUUCUGUGAAAGCAGAAGGUGCAUAACUCA [Omei KL FMN B SS B v7] :: 671
AGGUAGUCCCUUGUUGUCAUCGAAGAUGAACGAGGACCGGUACGGCCGCCACUCGGAGUGAUGUUCCGAUGGCUGCAAAAUAAAA [MatMod 23 - Jieux - Exclusion - Tryptophan A] :: 103
CGAGUGAUGUUCGAAGAGUUGUUAAGCGAUACCAGCUAGGAAACUGGCCCUUGGCAGCGUAAUAAGUUAAUAAAUAAAUGAUCAC [whbob_Ex_Theo_A_th64] :: 301

QUERY: Enter reported apparent KD of K4 kissing-loop reporter observed with K4 kissing-loop RNA reporter for ACUUAGAAUGAAGGAUAUUGGUUACGAGGGCUAACCAAAACGGAUCACUUGUCCAGUGAUGUUGUCCAAGAAGGUCACGUUAAAC [theeternabot_exclusion_KL_FMN_B_44]
RESULT: 576

QUERY: Provide the documented apparent KD of K4 kissing-loop reporter with K4 kissing-loop RNA reporter as the system for GUUACGCAUGGAAGGAGCGCACUCCGGUUGAUCGACACAGUGAUGUUGUGGUUCAUUCGAAUGCAGGUAGGUCGCCAUGUGUAAC [Ex Arginine B K4 15]
RESULT: 804

QUERY: Form field: apparent KD of K4 kissing-loop reporter recorded for UCCUAGGCUCGAAAGAGCCUAGGUAAGACUCAGGAUAUCUGGAAACAGAGAAGGGAGCUACUAGUGAUGUUAGGAAUUCCCAUUU with K4 kissing-loop RNA reporter (enter value)
RESULT: 85.1
